test: Inhibition of recombinant Trypanosoma brucei N-terminal His6-tagged AdoMetDC/prozyme hetrodimer expressed in Escherichia coli BL21/DE3 cells at pH 7.2 by RapidFire-MS-based enzyme activity assay
This section presents molecules with their documented IC50 values.
Write it as a number; the unit µM goes unstated.

Q: Which measured IC50 value corresponds to "CCc1cc(Br)cc(Nc2cc(C)nc(N)n2)c1" ?
Result: 7.6

Q: What measured IC50 goes with "Cc1cc(Nc2cc(C(F)(F)F)cc(C(F)(F)F)c2)nc(N)n1" ?
Result: 11

Q: Look up IC50 for this molecule: "Cc1cc(Nc2cc(Cl)ccc2Cl)nc(N)n1"
Result: 115

Q: If you can, please state the reported IC50 value of "Cc1cc(Nc2cc(Br)cc(S(F)(F)(F)(F)F)c2)nc(N)n1" .
Result: 8.7

Q: Looking for the measured IC50 of "Cc1cc(Nc2cc(Cl)cc(-c3ccc(C#N)cc3)c2)nc(N)n1" , can you help?
Result: 7.6

Q: // lookup IC50 for "Cc1cc(N(C)c2cc(Cl)cc(Cl)c2)nc(N)n1"
Result: 81

* * *

experiment: Inhibition of recombinant Trypanosoma brucei N-terminal His6-tagged AdoMetDC/prozyme hetrodimer expressed in Escherichia coli BL21/DE3 cells at pH 7.2 by RapidFire-MS-based enzyme activity assay
metricName: IC50 (µM)
Field format: number, assumed µM, no unit text.

Please review the following examples before continuing.
Cc1cc(Nc2cc(Cl)cc(-c3ccc(F)c(Cl)c3)c2)nc(N)n1
157
C=CCOc1cc(Br)cc(Nc2cc(C)nc(N)n2)c1
4.5
Cc1cc(Nc2cc(Cl)cc(-c3ccc(F)cc3)c2)nc(N)n1
1.1
Cc1cc(Nc2cc(Cl)cc(-c3ccc(C(F)(F)F)cc3)c2)nc(N)n1
4.7

Note: attention shifts to another entry.
Q: GET /values?readout=IC50&item= "Cc1cc(Nc2cc(Cl)cc(S(F)(F)(F)(F)F)c2)nc(N)n1"
Result: 16
